Target: hemagglutinin on live influenza A virus, A/California/4/09 H1N1 (Influenza A virus …)
Experiment: cell-based or functional assay
metric name: % Neutralization (%)
Reply with just the number (in %).

Hello, please tell me recorded % Neutralization for this one: TCN-540 (5060_F05) (antibody, V domains shown) VH: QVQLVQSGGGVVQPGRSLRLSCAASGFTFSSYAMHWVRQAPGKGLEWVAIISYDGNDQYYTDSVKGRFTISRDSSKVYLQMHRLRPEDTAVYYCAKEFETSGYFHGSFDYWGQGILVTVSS VL: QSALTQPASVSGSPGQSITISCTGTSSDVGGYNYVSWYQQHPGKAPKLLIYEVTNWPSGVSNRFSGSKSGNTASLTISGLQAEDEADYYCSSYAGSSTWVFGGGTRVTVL 0

Quick one: give measured % Neutralization for TCN-552 (5249_I23) (antibody, V domains shown) VH: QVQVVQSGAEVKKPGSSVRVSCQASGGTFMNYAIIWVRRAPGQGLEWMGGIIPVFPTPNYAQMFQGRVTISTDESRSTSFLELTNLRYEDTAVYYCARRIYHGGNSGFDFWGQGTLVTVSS VL: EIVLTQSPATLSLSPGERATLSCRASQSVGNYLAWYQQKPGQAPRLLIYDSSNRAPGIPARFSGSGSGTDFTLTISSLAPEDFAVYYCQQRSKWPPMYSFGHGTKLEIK 81
